# SYSTEM: human α4β7 (Homo sapiens, UniProt P13612+P26010)
# Construct: expressed in transfected cells
# Sequence (P13612 34-1032): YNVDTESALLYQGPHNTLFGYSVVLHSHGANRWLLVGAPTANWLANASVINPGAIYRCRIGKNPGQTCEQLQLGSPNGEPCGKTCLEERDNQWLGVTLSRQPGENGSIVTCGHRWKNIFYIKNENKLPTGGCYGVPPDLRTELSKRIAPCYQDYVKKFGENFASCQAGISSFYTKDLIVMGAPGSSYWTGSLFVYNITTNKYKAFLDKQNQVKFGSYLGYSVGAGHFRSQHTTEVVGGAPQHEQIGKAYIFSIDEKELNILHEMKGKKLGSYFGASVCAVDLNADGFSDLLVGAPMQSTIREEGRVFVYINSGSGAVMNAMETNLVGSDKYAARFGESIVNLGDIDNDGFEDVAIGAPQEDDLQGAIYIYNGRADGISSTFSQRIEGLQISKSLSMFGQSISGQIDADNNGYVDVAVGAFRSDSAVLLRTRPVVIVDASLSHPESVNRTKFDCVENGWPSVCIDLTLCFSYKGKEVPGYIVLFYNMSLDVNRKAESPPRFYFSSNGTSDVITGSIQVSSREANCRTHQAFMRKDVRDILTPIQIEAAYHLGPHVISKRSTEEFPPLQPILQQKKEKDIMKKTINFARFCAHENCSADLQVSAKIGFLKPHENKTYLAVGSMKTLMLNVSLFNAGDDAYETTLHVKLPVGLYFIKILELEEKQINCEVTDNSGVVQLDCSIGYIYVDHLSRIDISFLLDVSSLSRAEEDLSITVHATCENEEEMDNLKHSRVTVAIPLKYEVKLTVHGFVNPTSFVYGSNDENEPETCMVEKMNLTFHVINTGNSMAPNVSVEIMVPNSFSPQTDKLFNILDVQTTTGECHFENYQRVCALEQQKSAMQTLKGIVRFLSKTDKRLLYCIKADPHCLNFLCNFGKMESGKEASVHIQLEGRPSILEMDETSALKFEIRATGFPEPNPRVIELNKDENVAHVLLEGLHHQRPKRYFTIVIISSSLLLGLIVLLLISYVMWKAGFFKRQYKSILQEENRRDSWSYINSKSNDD
# Sequence (P26010 20-798): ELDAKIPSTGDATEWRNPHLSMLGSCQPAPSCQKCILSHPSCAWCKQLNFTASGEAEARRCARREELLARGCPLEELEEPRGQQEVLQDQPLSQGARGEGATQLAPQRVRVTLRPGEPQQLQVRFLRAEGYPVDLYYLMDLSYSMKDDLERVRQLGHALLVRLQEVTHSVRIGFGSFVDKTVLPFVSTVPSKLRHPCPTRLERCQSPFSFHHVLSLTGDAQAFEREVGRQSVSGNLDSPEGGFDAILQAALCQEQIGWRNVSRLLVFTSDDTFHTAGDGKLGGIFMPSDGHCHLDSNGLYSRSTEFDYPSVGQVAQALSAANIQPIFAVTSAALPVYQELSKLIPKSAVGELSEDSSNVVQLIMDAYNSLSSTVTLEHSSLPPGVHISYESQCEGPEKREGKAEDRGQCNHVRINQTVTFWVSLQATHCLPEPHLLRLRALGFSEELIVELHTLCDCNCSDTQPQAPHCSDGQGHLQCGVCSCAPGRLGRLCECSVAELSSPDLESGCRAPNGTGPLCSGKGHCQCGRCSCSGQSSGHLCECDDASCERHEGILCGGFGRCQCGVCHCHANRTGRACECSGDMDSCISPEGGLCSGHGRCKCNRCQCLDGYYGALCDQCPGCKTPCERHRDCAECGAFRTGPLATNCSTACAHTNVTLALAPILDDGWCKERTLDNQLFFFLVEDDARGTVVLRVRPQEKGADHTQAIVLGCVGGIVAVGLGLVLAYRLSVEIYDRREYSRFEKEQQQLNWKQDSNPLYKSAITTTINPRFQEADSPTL
# EXPERIMENTAL PROTOCOL: α4β7-K562 Cell Adhesion Assay (α4β7 Mediated Adhesion/VCAM-1)
# Format: cell-based
# STATED CONDITIONS: K562 cells expressing human α4β7 on recombinant hVCAM-1; read-out: α4β7 IC50
pIC50: −log10 of the molar value.
MEASURED ATTRIBUTE: pIC50

MOLECULE: O=C(Nc1ccc(CC(NC(=O)C2C3CCC(CC3)N2C(=O)CCc2ccccc2)C(=O)O)cc1)c1c(Cl)cncc1Cl (stereo not shown) [Cpd 39]
SYSTEM: human α4β7 (Homo sapiens, UniProt P13612+P26010)
ASSAY VALUE: 8.15

P = COc1cccc(CC(=O)N2C3CCC(CC3)C2C(=O)NC(Cc2ccc(NC(=O)c3c(Cl)cncc3Cl)cc2)C(=O)O)c1 (stereo not shown) [Cpd 1]
Q = O=C(Nc1ccc(CC(NC(=O)C2C3CCC(CC3)N2C(=O)C=Cc2ccc3c(c2)OCO3)C(=O)O)cc1)c1c(Cl)cncc1Cl (stereo not shown) [Cpd 46]
When their pIC50 values are compared, which is larger, P or Q ? Lab note: record the label of whichever item you select.
P

----------
# SYSTEM: α4β1 (Homo sapiens, UniProt P05556+P13612)
# Sequence (P13612 34-1032): as the sequence (P13612 34-1032) above
# Sequence (P05556 21-798): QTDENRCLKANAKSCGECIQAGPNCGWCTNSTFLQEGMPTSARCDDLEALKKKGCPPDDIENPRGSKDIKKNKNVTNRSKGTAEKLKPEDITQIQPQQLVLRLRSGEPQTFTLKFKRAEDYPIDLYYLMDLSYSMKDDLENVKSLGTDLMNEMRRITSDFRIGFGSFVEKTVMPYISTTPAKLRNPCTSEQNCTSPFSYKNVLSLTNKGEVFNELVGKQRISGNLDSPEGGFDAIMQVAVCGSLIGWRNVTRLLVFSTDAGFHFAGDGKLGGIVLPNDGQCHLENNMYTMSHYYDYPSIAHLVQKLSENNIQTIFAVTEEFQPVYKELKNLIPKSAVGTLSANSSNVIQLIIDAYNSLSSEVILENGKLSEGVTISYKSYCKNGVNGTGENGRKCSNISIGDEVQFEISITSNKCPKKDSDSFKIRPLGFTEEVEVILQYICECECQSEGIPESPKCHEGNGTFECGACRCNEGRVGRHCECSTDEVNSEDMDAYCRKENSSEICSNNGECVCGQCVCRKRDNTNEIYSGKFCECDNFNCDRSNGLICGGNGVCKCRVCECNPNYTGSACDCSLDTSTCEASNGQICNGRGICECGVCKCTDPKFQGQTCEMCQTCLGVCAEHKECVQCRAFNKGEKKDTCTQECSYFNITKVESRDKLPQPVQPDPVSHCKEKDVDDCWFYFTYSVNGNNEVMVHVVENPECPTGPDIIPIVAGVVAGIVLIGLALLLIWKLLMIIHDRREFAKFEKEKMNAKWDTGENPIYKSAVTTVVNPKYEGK
# EXPERIMENTAL PROTOCOL: Ramos Cell Adhesion Assay (α4β1 Mediated Adhesion/VCAM-1)
# Format: cell-based
# Set-up: Ramos cells, (50 μL at 2×10^6/mL) labeled with 5 μM Calcein AM; endogenous in cells; host or cells: Ramos cells
# STATED CONDITIONS: Ramos cells on recombinant hVCAM-1; read-out: α4β1 IC50
MEASURED ATTRIBUTE: IC50 (nM)

COMPOUND: O=C(Nc1ccc(CC(NC(=O)C2C3CCC(CC3)N2C(=O)Cc2ccsc2)C(=O)O)cc1)c1c(Cl)cncc1Cl (stereo not drawn) [Cpd 3]
ASSAY VALUE: 43
--
COMPOUND: O=C(Nc1ccc(CC(NC(=O)C2C3CCC(CC3)N2C(=O)c2cc(Cl)cc(Cl)c2)C(=O)O)cc1)c1c(Cl)cncc1Cl (stereo not drawn)
ASSAY VALUE: 842
--
COMPOUND: COc1ccc(OC)c(C(=O)N2C3CCC(CC3)C2C(=O)NC(Cc2ccc(NC(=O)c3c(Cl)cncc3Cl)cc2)C(=O)O)c1 (stereo not drawn)
ASSAY VALUE: 188
--
COMPOUND: CC(C)CCC(=O)N1C2CCC(CC2)C1C(=O)NC(Cc1ccc(NC(=O)c2c(Cl)cncc2Cl)cc1)C(=O)O (stereo not drawn)
ASSAY VALUE: 5
--
COMPOUND: COc1cccc(CC(=O)N2C3CCC(CC3)C2C(=O)NC(Cc2ccc(NC(=O)c3c(Cl)cncc3Cl)cc2)C(=O)O)c1 (stereo not drawn) [Cpd 59]
ASSAY VALUE: 504
--
COMPOUND: O=C(Nc1ccc(CC(NC(=O)C2C3CCC(CC3)N2C(=O)Cc2cccs2)C(=O)O)cc1)c1c(Cl)cncc1Cl (stereo not drawn)
ASSAY VALUE: 12
--
COMPOUND: O=C(Nc1ccc(CC(NC(=O)C2C3CCC(CC3)N2C(=O)Nc2ccccc2)C(=O)O)cc1)c1c(Cl)cncc1Cl (stereo not drawn)
ASSAY VALUE: 259
--
COMPOUND: O=C(Nc1ccc(CC(NC(=O)C2C3CCC(CC3)N2C(=O)Nc2ccccc2Cl)C(=O)O)cc1)c1c(Cl)cncc1Cl (stereo not drawn)
ASSAY VALUE: 380

A = CC(=Cc1ccccc1)C(=O)N1C2CCC(CC2)C1C(=O)NC(Cc1ccc(NC(=O)c2c(Cl)cncc2Cl)cc1)C(=O)O (stereo not drawn)
B = COc1ccccc1C=CC(=O)N1C2CCC(CC2)C1C(=O)NC(Cc1ccc(NC(=O)c2c(Cl)cncc2Cl)cc1)C(=O)O (stereo not drawn)
C = CC(C)(C)CC(=O)N1C2CCC(CC2)C1C(=O)NC(Cc1ccc(NC(=O)c2c(Cl)cncc2Cl)cc1)C(=O)O (stereo not drawn) [Cpd 27]
D = O=C(Nc1ccc(CC(NC(=O)C2C3CCC(CC3)N2C(=O)Cc2cccnc2)C(=O)O)cc1)c1c(Cl)cncc1Cl (stereo not drawn)
Arrange by IC50, high to low. // list labels; follow requested order
C, A, D, B

a = CC(C)(C)OC(=O)N1CCN(CCC(=O)N2C3CCC(CC3)C2C(=O)NC(Cc2ccc(NC(=O)c3c(Cl)cncc3Cl)cc2)C(=O)O)CC1 (stereo not drawn)
b = O=C(Nc1ccc(CC(NC(=O)C2C3CCC(CC3)N2C(=O)c2ccccc2Oc2ccccc2)C(=O)O)cc1)c1c(Cl)cncc1Cl (stereo not drawn)
Compare reported IC50 values for a and b . Which is lower? Lab note: record the label of whichever item you select.
b

a = O=C(Nc1ccc(CC(NC(=O)C2C3CCC(CC3)N2C(=O)CCC2CCCC2)C(=O)O)cc1)c1c(Cl)cncc1Cl (stereo not drawn)
b = O=C(Nc1ccc(CC(NC(=O)C2C3CCC(CC3)N2C(=O)Cc2ccsc2)C(=O)O)cc1)c1c(Cl)cncc1Cl (mixture of isomers) [Cpd 60]
c = COc1ccccc1CC(=O)N1C2CCC(CC2)C1C(=O)NC(Cc1ccc(NC(=O)c2c(Cl)cncc2Cl)cc1)C(=O)O (stereo not drawn)
d = O=C(Nc1ccc(CC(NC(=O)C2C3CCC(CC3)N2C(=O)C#Cc2ccccc2)C(=O)O)cc1)c1c(Cl)cncc1Cl (stereo not drawn)
e = O=C(Nc1ccc(CC(NC(=O)C2C3CCC(CC3)N2C(=O)CCN2CCCCC2)C(=O)O)cc1)c1c(Cl)cncc1Cl (stereo not drawn)
Arrange by IC50, high to low. // list labels; follow requested order
b, a, c, d, e
(b: 156 nM, a: 89 nM, c: 28 nM, d: 9 nM, e: 5 nM)

I = O=C(Nc1ccc(CC(NC(=O)C2C3CCC(CC3)N2C(=O)NCc2ccccc2)C(=O)O)cc1)c1c(Cl)cncc1Cl (stereo not drawn)
II = O=C(Nc1ccc(CC(NC(=O)C2C3CCC(CC3)N2C(=O)CCN2CCNCC2)C(=O)O)cc1)c1c(Cl)cncc1Cl (stereo not drawn)
Compare reported IC50 values for I and II . Which is lower? Lab note: record the label of whichever item you select.
II

A = COc1cccc(CC(=O)N2C3CCC(CC3)C2C(=O)NC(Cc2ccc(NC(=O)c3c(Cl)cncc3Cl)cc2)C(=O)O)c1 (stereo not drawn) [Cpd 1]
B = O=C(Nc1ccc(CC(NC(=O)C2C3CCC(CC3)N2C(=O)Nc2ccc(Cl)cc2)C(=O)O)cc1)c1c(Cl)cncc1Cl (stereo not drawn)
When their IC50 values are compared, which is larger, A or B ? Lab note: record the label of whichever item you select.
B
(B: 591 nM, A: 156 nM)

1 = O=C(Nc1ccc(CC(NC(=O)C2C3CCC(CC3)N2C(=O)Nc2cccc(Cl)c2)C(=O)O)cc1)c1c(Cl)cncc1Cl (stereo not drawn)
2 = O=C(Nc1ccc(CC(NC(=O)C2C3CCC(CC3)N2C(=O)CCCC2CCCCC2)C(=O)O)cc1)c1c(Cl)cncc1Cl (stereo not drawn)
Compare reported IC50 values for 1 and 2 . Which is lower? Lab note: record the label of whichever item you select.
2

----------
# SYSTEM: α4β1 (Homo sapiens, UniProt P05556+P13612)
# EXPERIMENTAL PROTOCOL: Ramos Cell Adhesion Assay (α4β1 Mediated Adhesion/VCAM-1)
# Assay type: cell-based
# Set-up: Ramos cells, (50 μL at 2×10^6/mL) labeled with 5 μM Calcein AM; endogenous in cells; host or cells: Ramos cells
# STATED CONDITIONS: Ramos cells on recombinant hVCAM-1; read-out: α4β1 IC50
MEASURED ATTRIBUTE: IC50 (nM)

Here are 2 compounds together with their reported answers.
COMPOUND: CC(C)(C)CCN1C2CCC(CC2)[C@H]1C(=O)N[C@@H](Cc1ccc(NC(=O)c2c(Cl)cncc2Cl)cc1)C(=O)O
SYSTEM: α4β1 (Homo sapiens, UniProt P05556+P13612)
IC50 (nM): 47
//
COMPOUND: Cc1ccnn1CC(=O)N1C2CCC(CC2)C1C(=O)NC(Cc1ccc(NC(=O)c2c(Cl)cncc2Cl)cc1)C(=O)O (stereo not drawn)
SYSTEM: α4β1 (Homo sapiens, UniProt P05556+P13612)
IC50 (nM): 69

I = CN(C)c1ccc(CC(=O)N2C3CCC(CC3)C2C(=O)NC(Cc2ccc(NC(=O)c3c(Cl)cncc3Cl)cc2)C(=O)O)cc1 (stereo not drawn)
II = O=C(Nc1ccc(CC(NC(=O)C2C3CCC(CC3)N2C(=O)CCc2cc(C(F)(F)F)cc(C(F)(F)F)c2)C(=O)O)cc1)c1c(Cl)cncc1Cl (stereo not drawn)
III = O=C(Nc1ccc(CC(NC(=O)C2C3CCC(CC3)N2C(=O)CCc2ccc(C(F)(F)F)cc2)C(=O)O)cc1)c1c(Cl)cncc1Cl (stereo not drawn)
IV = O=C(Nc1ccc(CC(NC(=O)C2C3CCC(CC3)N2C(=O)c2ccccc2F)C(=O)O)cc1)c1c(Cl)cncc1Cl (mixture of isomers)
Arrange by IC50, high to low. // list labels; follow requested order
IV, II, III, I
